Molecular target: human ATX (autotaxin, ENPP2), His-tagged (Homo sapiens (Human))
Assay: Human ATX enzyme inhibition assay (fluorescence quenching, MR121 substrate)
Type: biochemical
Conditions: 30 nM ATX, 1 μM MR121 substrate, 30° C., pH 8.0
pIC50: −log10 of the molar value.
Label rule, in plain words: pIC50 of 7 and up is Criterion met, under 7 is Criterion not met.

{"compound": "CN(Cc1ccc(Cl)c(Cl)c1)C(=O)Cn1cnc2ccc(N3CCN(S(=O)(=O)C4CC4)CC3)cc2c1=O", "target of assay": "human ATX (autotaxin, ENPP2), His-tagged (Homo sapiens (Human))", "assigned class": "Criterion met"}
{"compound": "NC1(C(=O)N2CCN(c3ccc4ncn(CC(=O)NCc5ccc(Cl)c(Cl)c5)c(=O)c4c3)CC2)COC1", "target of assay": "human ATX (autotaxin, ENPP2), His-tagged (Homo sapiens (Human))", "assigned class": "Criterion not met"}
{"compound": "CC(=O)N1CCN(c2ccc3ncn(CC(=O)N(C)Cc4ccc(C#N)c(F)c4)c(=O)c3c2)CC1", "target of assay": "human ATX (autotaxin, ENPP2), His-tagged (Homo sapiens (Human))", "assigned class": "Criterion met"}
{"compound": "CC(=O)N1CCN(c2ccc3ncn(CC(=O)N[C@H](CC(N)=O)c4ccc(Cl)cc4)c(=O)c3c2)CC1", "target of assay": "human ATX (autotaxin, ENPP2), His-tagged (Homo sapiens (Human))", "assigned class": "Criterion not met"}
{"compound": "CC(=O)N1CCN(c2ccc3ncn(CC(=O)NC(CC(=O)Nc4ccccc4)c4ccc(Cl)cc4)c(=O)c3c2)CC1 (centres unmarked)", "target of assay": "human ATX (autotaxin, ENPP2), His-tagged (Homo sapiens (Human))", "assigned class": "Criterion not met"}
{"compound": "N#Cc1ccc(CNC(=O)Cn2cnc3ccc(N4CCN(C(=O)C5COC5)CC4)cc3c2=O)c(Cl)c1", "target of assay": "human ATX (autotaxin, ENPP2), His-tagged (Homo sapiens (Human))", "assigned class": "Criterion not met"}
{"compound": "CC(=O)N1CCCN(c2ccc3ncn(CC(=O)NCc4ccc(C(F)(F)F)cc4)c(=O)c3c2)CC1", "target of assay": "human ATX (autotaxin, ENPP2), His-tagged (Homo sapiens (Human))", "assigned class": "Criterion not met"}
{"compound": "CN(Cc1ccc(Cl)c(Cl)c1)C(=O)Cn1cnc2ccc(C3CCN(C(=O)C(C)(C)O)CC3)cc2c1=O", "target of assay": "human ATX (autotaxin, ENPP2), His-tagged (Homo sapiens (Human))", "assigned class": "Criterion met"}
{"compound": "CN(Cc1ccc(Cl)c(Cl)c1)C(=O)Cn1cnc2ccc(N3CCN(C(=O)C4CC(F)(F)C4)CC3)cc2c1=O", "target of assay": "human ATX (autotaxin, ENPP2), His-tagged (Homo sapiens (Human))", "assigned class": "Criterion met"}
{"compound": "CC(=O)N1CCN(c2ccc3ncn(CC(=O)NCc4cc(Cl)c(Cl)cn4)c(=O)c3c2)CC1", "target of assay": "human ATX (autotaxin, ENPP2), His-tagged (Homo sapiens (Human))", "assigned class": "Criterion met"}
{"compound": "CC(=O)N1CCN(c2ccc3[nH]c(=O)n(CC(=O)NCc4ccc(Cl)c(Cl)c4)c(=O)c3c2)CC1", "target of assay": "human ATX (autotaxin, ENPP2), His-tagged (Homo sapiens (Human))", "assigned class": "Criterion not met"}
{"compound": "CC(C)NC(=O)N1CCN(c2ccc3ncn(CC(=O)NCc4ccc(Cl)c(Cl)c4)c(=O)c3c2)CC1", "target of assay": "human ATX (autotaxin, ENPP2), His-tagged (Homo sapiens (Human))", "assigned class": "Criterion met"}
{"compound": "CCC(=O)N1CCN(c2ccc3ncn(CC(=O)N(C)Cc4ccc(Cl)c(Cl)c4)c(=O)c3c2)CC1", "target of assay": "human ATX (autotaxin, ENPP2), His-tagged (Homo sapiens (Human))", "assigned class": "Criterion met"}
{"compound": "CNC(=O)CC(NC(=O)Cn1cnc2ccc(N3CCN(C(C)=O)CC3)cc2c1=O)c1ccc(C(F)(F)F)cc1 (centres unmarked)", "target of assay": "human ATX (autotaxin, ENPP2), His-tagged (Homo sapiens (Human))", "assigned class": "Criterion not met"}
{"compound": "CN(C)C(=O)CN1CCN(c2ccc3ncn(CC(=O)N(C)Cc4ccc(Cl)c(Cl)c4)c(=O)c3c2)CC1", "target of assay": "human ATX (autotaxin, ENPP2), His-tagged (Homo sapiens (Human))", "assigned class": "Criterion met"}
{"compound": "COCC(=O)N1CCC(c2ccc3ncn(CC(=O)N(C)Cc4ccc(Cl)c(Cl)c4)c(=O)c3c2)CC1", "target of assay": "human ATX (autotaxin, ENPP2), His-tagged (Homo sapiens (Human))", "assigned class": "Criterion met"}
{"compound": "CN(Cc1ccc(Cl)c(Cl)c1)C(=O)Cn1cnc2ccc(N3CCN(C(=O)C4CC(F)C4)CC3)cc2c1=O (centres unmarked)", "target of assay": "human ATX (autotaxin, ENPP2), His-tagged (Homo sapiens (Human))", "assigned class": "Criterion met"}
{"compound": "COCCC(NC(=O)Cn1cnc2ccc(N3CCN(C(C)=O)CC3)cc2c1=O)c1ccc(Cl)c(Cl)c1 (centres unmarked)", "target of assay": "human ATX (autotaxin, ENPP2), His-tagged (Homo sapiens (Human))", "assigned class": "Criterion met"}
{"compound": "CC(=O)N1CCN(c2ccc3ncn(CC(=O)NC(C)c4ccc(Cl)cc4)c(=O)c3c2)CC1 (centres unmarked)", "target of assay": "human ATX (autotaxin, ENPP2), His-tagged (Homo sapiens (Human))", "assigned class": "Criterion not met"}
{"compound": "CC(=O)N1CCN(c2ccc3ncn(CC(=O)NCc4ccc(C#N)c(F)c4)c(=O)c3c2)CC1", "target of assay": "human ATX (autotaxin, ENPP2), His-tagged (Homo sapiens (Human))", "assigned class": "Criterion met"}
